meta.source: patent US4327088A

# assay-notes: Acute toxicity in mice
# Design: species or system ddy mice
# stated-conditions: mouse, in vivo, po, ddy mice, day 21; suspended in 0.5% carboxymethyl cellulose; read-out: LD50, p.o. route
measure-name: LD50 at 504 h

COc1ccc(/C=C/C(=O)c2c(OC)cc(OC)cc2OC(=O)c2ccccc2)cc1 : > 1000 mg/kg

stdin: If you can, please state the reported LD50 at 504 h value of COc1cc(OC)c(C(=O)/C=C/c2ccc3c(c2)OCO3)c(OP(=O)(O)O)c1 .
stdout: > 1000 mg/kg

stdin: If you can, please state the reported LD50 at 504 h value of COCOc1ccc(/C=C/C(=O)c2c(O)cc(OC)cc2OC)cc1 .
stdout: > 1000 mg/kg

stdin: If you can, please state the reported LD50 at 504 h value of COc1ccc(/C=C/C(=O)c2c(OC)cc(OC)cc2O[C@@H]2O[C@H](COC(C)=O)[C@@H](OC(C)=O)[C@H](OC(C)=O)[C@H]2NC(C)=O)cc1 .
stdout: > 2000 mg/kg

stdin: If you can, please state the reported LD50 at 504 h value of CC[N+](CC)(CC)CC(=O)Oc1cc(OC)cc(OC)c1C(=O)/C=C/c1ccc(OC)cc1.[Cl-] .
stdout: > 1000 mg/kg

stdin: If you can, please state the reported LD50 at 504 h value of COc1cc(OC)c(C(=O)/C=C/c2ccc(C)o2)c(OP(=O)(O)O)c1 .
stdout: > 1200 mg/kg

stdin: If you can, please state the reported LD50 at 504 h value of COc1ccc(/C=C/C(=O)c2c(OC)cc(OC)cc2O[C@@H]2O[C@H](CO)[C@@H](O)[C@H](O)[C@H]2NC(C)=O)cc1 .
stdout: > 2000 mg/kg

stdin: If you can, please state the reported LD50 at 504 h value of COc1ccc(/C=C/C(=O)c2c(OC)cc(OC)cc2OC(=O)c2ccc(OC)cc2OC)cc1 .
stdout: > 1000 mg/kg

stdin: If you can, please state the reported LD50 at 504 h value of COc1ccc(/C=C/C(=O)c2c(OC)cc(OC)cc2OC(=O)c2ccc(OC)cc2)cc1 .
stdout: > 1000 mg/kg

stdin: If you can, please state the reported LD50 at 504 h value of COc1ccc(/C=C/C(=O)c2c(OC)cc(OC)cc2OC(=O)c2ccco2)cc1 .
stdout: > 1000 mg/kg

stdin: If you can, please state the reported LD50 at 504 h value of COc1cc(OC)c(C(=O)/C=C/c2ccc(C)cc2)c(OP(=O)(O)O)c1 .
stdout: > 2000 mg/kg

* * *

# assay-notes: Acute toxicity in mice
# Set-up: species or system ddy mice
# stated-conditions: mouse, in vivo, ip; i.p. single dose, ddy mice 15 ~ 20 g, day 21; dissolved in dimethylsulfoxide; read-out: LD50, i.p. route
measure-name: LD50 at 504 h

A selection of reference data follows.
CCOc1cc(OC)cc(OP(=O)(O)O)c1C(=O)/C=C/c1ccc(OC)cc1 : > 500 mg/kg
COc1ccc(/C=C/C(=O)c2c(OC)cc(OC)cc2OC(=O)c2ccco2)cc1 : > 500 mg/kg

stdin: If you can, please state the reported LD50 at 504 h value of COc1cc(OC)c(C(=O)/C=C/c2ccc(C)o2)c(OP(=O)(O)O)c1 .
stdout: > 500 mg/kg

stdin: If you can, please state the reported LD50 at 504 h value of COc1ccc(/C=C/C(=O)c2c(OC)cc(OC)cc2OC(=O)OCc2ccccc2)cc1 .
stdout: > 500 mg/kg

stdin: If you can, please state the reported LD50 at 504 h value of COc1cc(OC)c(C(=O)/C=C/c2ccc(C)cc2)c(OP(=O)(O)O)c1 .
stdout: > 500 mg/kg

stdin: If you can, please state the reported LD50 at 504 h value of COc1cc(O)c(C(=O)/C=C/c2ccc3[nH]cnc3c2)c(OC)c1 .
stdout: > 100 mg/kg

stdin: If you can, please state the reported LD50 at 504 h value of COc1ccc(/C=C/C(=O)c2c(OC)cc(OC)cc2O[C@@H]2O[C@H](CO)[C@@H](O)[C@H](O)[C@H]2NC(C)=O)cc1 .
stdout: > 300 mg/kg
